Let's look at some compounds and their measured MIC.
# Test system: Cryptococcus neoformans
# assay comment: MIC, twofold serial broth dilution assay, Cryptococcus neoformans
# Type: cell-based, Cryptococcus neoformans ATCC 32264
# experimental parameters: 48 h, Cn, YNB (yeast nitrogen base broth), 26°

compound: O=C1c2ccccc2-c2nccc3ccnc1c23
MIC: < 0.2 µg/mL
//
compound: COc1cnc2c3c(nccc13)-c1ccccc1C2=O
MIC: 12.5 µg/mL
//
compound: O=C1c2ccccc2-c2nccc3c2c1nc1ccccc13 [Benzo[4,5]sampangine]
MIC: 1.56 µg/mL
//
compound: O=C1c2ccccc2-c2nccc3c(Br)cnc1c23
MIC: < 0.2 µg/mL

---

# Test system: Cryptococcus neoformans
# assay comment: MIC, twofold serial broth dilution assay, Cryptococcus neoformans
# Type: cell-based, Cryptococcus neoformans ATCC 32264
# experimental parameters: Cryptococcus neoformans, 48 h, Cn, SDB (Sabouraud dextrose broth), 26°

molecule: O=C1c2ccccc2-c2nccc3c(Br)cnc1c23 [4-Bromosampangine]
censoring operator: =
MIC [µg/mL]: 0.39

molecule: COc1cnc2c3c(nccc13)-c1ccccc1C2=O [4-Methoxysampangine]
censoring operator: =
MIC [µg/mL]: 3.12

molecule: O=C1c2ccccc2-c2nccc3c2c1nc1ccccc13 [Benzo[4,5]sampangine]
censoring operator: <
MIC [µg/mL]: 0.2

molecule: COc1cnc2c3c(nccc13)C(=O)c1ccccc1-2 [3-Methoxysampangine]
censoring operator: =
MIC [µg/mL]: 0.2

molecule: O=C1c2ccccc2-c2nccc3ccnc1c23 [Sampangine]
censoring operator: <
MIC [µg/mL]: 0.2

---

# System: Cryptococcus neoformans
# assay comment: MIC, twofold serial broth dilution assay, Cryptococcus neoformans
# Format: cell-based, Cryptococcus neoformans ATCC 32264
# experimental parameters: Cryptococcus neoformans, 48 h, Cn, MYCO (Mycophil broth), 26°
# Experimental: The generic name for the compound is 3-Methoxysampangine. The antifungal activity of the compound was determined by in vitro evaluation against Candida albicans NIH B311, Cryptococcus neoformans ATCC 32264, and Aspergillus fumigatus ATCC 26934 using the known agar-well diffusion assay techniques with the following modifications. Candida albicans NIH B311 used to induce experimental disseminated candidiasis was used for the initial qualitative evaluation of anticandidal activity. […]
Let's look at some molecules and their measured MIC.

molecule: O=C1c2ccccc2-c2nccc3c(Br)cnc1c23 [4-Bromosampangine]
target desc: Cryptococcus neoformans
censoring operator: <
MIC (µg/mL): 0.2
--
molecule: O=C1c2ccccc2-c2nccc3ccnc1c23 [Sampangine]
target desc: Cryptococcus neoformans
censoring operator: =
MIC (µg/mL): 0.78
--
molecule: COc1cnc2c3c(nccc13)-c1ccccc1C2=O [4-Methoxysampangine]
target desc: Cryptococcus neoformans
censoring operator: =
MIC (µg/mL): 1.56
--
molecule: O=C1c2ccccc2-c2nccc3c2c1nc1ccccc13 [Benzo[4,5]sampangine]
target desc: Cryptococcus neoformans
censoring operator: <
MIC (µg/mL): 0.2
--
molecule: C[C@@H]1[C@H](O)[C@@H](C)/C=C/C=C/C=C/C=C/C=C/C=C/C=C/[C@H](O[C@@H]2O[C@H](C)[C@@H](O)[C@H](N)[C@@H]2O)C[C@@H]2O[C@](O)(C[C@@H](O)C[C@@H](O)[C@H](O)CC[C@@H](O)C[C@@H](O)CC(=O)O[C@H]1C)C[C@H](O)[C@H]2C(=O)O [Amphotericin B, reference compound]
target desc: Cryptococcus neoformans
censoring operator: =
MIC (µg/mL): 0.2

---

Let's look at some molecules and their measured MIC.
# Test system: Candida albicans
# assay comment: MIC, twofold serial broth dilution assay, Candida albicans
# Format: cell-based, Candida albicans NIH B311
# experimental parameters: Candida albicans, 24 h, Ca B311, MYCO (Mycophil broth), 37°
endpoint: MIC (µg/mL)

molecule: O=C1c2ccccc2-c2nccc3c(Br)cnc1c23
value measured: 25

molecule: COc1cnc2c3c(nccc13)-c1ccccc1C2=O
value measured: 100

molecule: O=C1c2ccccc2-c2nccc3ccnc1c23
value measured: 12.5

molecule: O=C1c2ccccc2-c2nccc3c2c1nc1ccccc13 [Benzo[4,5]sampangine]
value measured: 50

molecule: C[C@@H]1[C@H](O)[C@@H](C)/C=C/C=C/C=C/C=C/C=C/C=C/C=C/[C@H](O[C@@H]2O[C@H](C)[C@@H](O)[C@H](N)[C@@H]2O)C[C@@H]2O[C@](O)(C[C@@H](O)C[C@@H](O)[C@H](O)CC[C@@H](O)C[C@@H](O)CC(=O)O[C@H]1C)C[C@H](O)[C@H]2C(=O)O [Amphotericin B, reference compound]
value measured: 0.2

---

# System: Candida albicans
# assay comment: MIC, twofold serial broth dilution assay, Candida albicans
# Assay type: cell-based, Candida albicans NIH B311
# experimental parameters: 24 h, Ca B311, YNB (yeast nitrogen base broth), 37°
Let's look at some compounds and their measured MIC.

compound: COc1cnc2c3c(nccc13)-c1ccccc1C2=O [4-Methoxysampangine]
reading unit: µg/mL
MIC: 3.12
--
compound: O=C1c2ccccc2-c2nccc3c(Br)cnc1c23 [4-Bromosampangine]
reading unit: µg/mL
MIC: 12.5
--
compound: O=C1c2ccccc2-c2nccc3c2c1nc1ccccc13 [Benzo[4,5]sampangine]
reading unit: µg/mL
MIC: 3.12
--
compound: O=C1c2ccccc2-c2nccc3ccnc1c23 [Sampangine]
reading unit: µg/mL
MIC: 0.78
